EXPERIMENTAL_TARGET: T1, corticotropin releasing factor 2 receptor; further: reference of the scale not given here
T1 sequence (Q13324 whole entry, species assumed, looked up): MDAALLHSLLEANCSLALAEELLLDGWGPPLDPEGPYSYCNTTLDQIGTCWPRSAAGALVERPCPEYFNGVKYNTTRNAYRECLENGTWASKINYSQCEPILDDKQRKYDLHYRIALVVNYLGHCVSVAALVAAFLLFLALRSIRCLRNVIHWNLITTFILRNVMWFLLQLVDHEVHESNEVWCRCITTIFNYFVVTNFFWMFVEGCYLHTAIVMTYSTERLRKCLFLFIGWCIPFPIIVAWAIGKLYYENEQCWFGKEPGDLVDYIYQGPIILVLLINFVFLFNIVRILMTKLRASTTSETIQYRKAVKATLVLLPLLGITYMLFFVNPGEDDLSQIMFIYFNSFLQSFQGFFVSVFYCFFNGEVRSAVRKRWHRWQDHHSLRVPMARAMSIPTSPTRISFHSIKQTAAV
EXPERIMENT_DESCRIPTION: cell-based or functional assay
Ends that are not written are not given here.
EXPERIMENTAL_ENDPOINT: CRF2R Emax (%)

• SQEPPISLDLPFGLLREVLEMTKADQLAQQAHSNRKLLDIA-NH2 [SEQ ID NO 103] = 4.85
• ZGPPISIDVPTYLLRILIEIEKQEKEKQQATTNARILARV (C-terminal amide) [SEQ ID NO 169] = 93
• ZGPPISIDLPSYLLRKMIEIEKQEKEKQQAANNRLLLDTI (C-terminal amide) [SEQ ID NO 56] = 87
• ZGPPISIDVPFQLLRKMIEIEKQEKEKQQATTNARILARV (C-terminal amide) [SEQ ID NO 172] = 100
• ZGPPISIDLPTGLLRKMIEIEKQEKEKQQAANNRLLLDTI (C-terminal amide) [SEQ ID NO 73] = 11
• ZGIVLSLDVPIGLLRKMIEIEKQEKEKQQAANNRLLLDTI (C-terminal amide) [SEQ ID NO 153] = 97

Origin of measurements: patent US20030148958A1
